So I've got a bunch of compounds here, and I need their Kd values.
target: Cellular tumor antigen p53 (Homo sapiens, UniProt P04637, Y220C); test: Binding affinity to p53 Y220C mutant (unknown origin)
Give bare numbers, in µM.

O=C(O)c1cc(I)cc(I)c1O    820

Please examine the following record next.
I looked up O=C(O)c1cc(I)c(-n2cccc2)c(I)c1O and its Kd for Cellular tumor antigen p53 (Homo sapiens, UniProt P04637, Y220C) was 21
